Every entry's value here was drawn from patent US20240391954A1.

# test system: human MC4R receptor (human, UniProt P32245 1-332)
# Sequence (P32245 whole entry): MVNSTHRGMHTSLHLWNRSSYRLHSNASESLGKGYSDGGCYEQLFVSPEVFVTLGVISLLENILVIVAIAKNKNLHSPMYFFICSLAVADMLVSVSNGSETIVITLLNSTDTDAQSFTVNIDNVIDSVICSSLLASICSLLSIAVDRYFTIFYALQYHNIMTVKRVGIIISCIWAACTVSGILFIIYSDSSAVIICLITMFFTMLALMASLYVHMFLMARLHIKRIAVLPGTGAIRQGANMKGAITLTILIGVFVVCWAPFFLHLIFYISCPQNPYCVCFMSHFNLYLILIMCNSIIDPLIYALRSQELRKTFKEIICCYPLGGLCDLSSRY
# experiment notes: cell-based or functional assay
Positions of bridges follow the written chain, without caps; N, C: chain ends. Non-standard residues stand in square brackets, D forms with d. Cit = NC(=O)NCCC[C@H](N)C(=O)O; Nle = CCCC[C@H](N)C(=O)O; Orn = NCCC[C@H](N)C(=O)O; Aib = CC(C)(N)C(=O)O
# note: boundary value 2 maps to NO; MC4R selectivity vs MC1R below it maps to YES

Completed entries (count: 2):
{"binder": "Ac-R[Nle]CR[dF]RWC-NH2 (disulfide 3-8; SMILES CCCC[C@H](NC(=O)[C@H](CCCNC(=N)N)NC(C)=O)C(=O)N[C@H]1CSSC[C@@H](C(N)=O)NC(=O)[C@H](Cc2c[nH]c3ccccc23)NC(=O)[C@H](CCCNC(=N)N)NC(=O)[C@@H](Cc2ccccc2)NC(=O)[C@H](CCCNC(=N)N)NC1=O) [CTX-1228]", "group": "NO"}
{"binder": "Ac-C[Aib]R[dF]RWC-NH2 (disulfide 1-7; SMILES CC(=O)N[C@H]1CSSC[C@@H](C(N)=O)NC(=O)[C@H](Cc2c[nH]c3ccccc23)NC(=O)[C@H](CCCNC(=N)N)NC(=O)[C@@H](Cc2ccccc2)NC(=O)[C@H](CCCNC(=N)N)NC(=O)C(C)(C)NC1=O) [CTX-1632]", "group": "NO"}

Ask | Input {CH2CO}-[dA]R[dF]RWC-NH2 (thioether N-6; SMILES C[C@H]1NC(=O)CSC[C@@H](C(N)=O)NC(=O)[C@H](Cc2c[nH]c3ccccc23)NC(=O)[C@H](CCCNC(=N)N)NC(=O)[C@@H](Cc2ccccc2)NC(=O)[C@H](CCCNC(=N)N)NC1=O) [CTX-1642] ; condition: MC4R selectivity vs MC1R strictly below 2. Does it hold?
Reply | NO

Ask | Input {CH2CO}-[dA]R[dF]RFC-NH2 (thioether N-6; SMILES C[C@H]1NC(=O)CSC[C@@H](C(N)=O)NC(=O)[C@H](Cc2ccccc2)NC(=O)[C@H](CCCNC(=N)N)NC(=O)[C@@H](Cc2ccccc2)NC(=O)[C@H](CCCNC(=N)N)NC1=O) [CTX-1657] ; condition: MC4R selectivity vs MC1R strictly below 2. Does it hold?
Reply | YES

Ask | Input Ac-RC[Aib]R[dF]RWC-NH2 (disulfide 2-8) [CTX-1292] ; condition: MC4R selectivity vs MC1R strictly below 2. Does it hold?
Reply | NO

Ask | Input Ac-R[Nle]C[Orn][dF]RWC-NH2 (disulfide 3-8; SMILES CCCC[C@H](NC(=O)[C@H](CCCNC(=N)N)NC(C)=O)C(=O)N[C@H]1CSSC[C@@H](C(N)=O)NC(=O)[C@H](Cc2c[nH]c3ccccc23)NC(=O)[C@H](CCCNC(=N)N)NC(=O)[C@@H](Cc2ccccc2)NC(=O)[C@H](CCCN)NC1=O) [CTX-1617] ; condition: MC4R selectivity vs MC1R strictly below 2. Does it hold?
Reply | YES

Ask | Input Ac-CG[Cit][dF]RWC-NH2 (disulfide 1-7; SMILES CC(=O)N[C@H]1CSSC[C@@H](C(N)=O)NC(=O)[C@H](Cc2c[nH]c3ccccc23)NC(=O)[C@H](CCCNC(=N)N)NC(=O)[C@@H](Cc2ccccc2)NC(=O)[C@H](CCCNC(N)=O)NC(=O)CNC1=O) [CTX-1630] ; condition: MC4R selectivity vs MC1R strictly below 2. Does it hold?
Reply | NO
